- Test Details: binders of probe aFGF10 on microarray, primary screen, stem cell growth factor project, biochemical, small-molecule microarray, fluorescence 635/667 (AID 1071);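 further: score merges 667 nm spot intensity and signal to noise from triplicate slides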
- Setup Conditions: higher = more signal
composite z-score of 0.6 or higher: Yes. Under 0.6: No.

COC(=O)[C@]1(Cc2ccccc2N=[N+]=[N-])N=C(c2ccc(OCCCO)cc2)O[C@@H]1c1ccccc1CN=[N+]=[N-]; Yes
COc1c(C)cc(-c2nc(-c3ccccc3)c3c(c2C)CO[Si]3(C(C)C)C(C)C)cc1C; No
Cc1ccc(S[C@]2(C(=O)NC(C)C)CC(=O)N(Cc3ccccc3)[C@@H]2c2ccc(CO)cc2I)cc1; No
COc1ccc([Si](C)(C)[C@H]2[C@H](CC(=O)N(CCO)Cc3ccccc3)O[C@@]3(C(=O)N(c4ccccc4)c4ccccc43)[C@@H]2C)cc1; Yes
[N-]=[N+]=Nc1ccccc1C[C@@]1(C(=O)NCc2ccccc2)N=C(c2ccc(OCCCO)cc2)O[C@@H]1c1ccccc1; Yes
COc1ccc([Si](C)(C)[C@H]2[C@H](CC(=O)N3CCC[C@H]3CO)O[C@@]3(C(=O)N(Cc4cccc(N5CCCCC5=O)c4)c4ccccc43)[C@@H]2C)cc1; Yes

Query: Check if composite z-score >= 0.6 (inclusive). Item: O=C1NC(=O)C2C1C=CC(C(O)C(O)CO)N2Nc1ccccn1 (stereo not drawn)
Result: No

Query: Does the reported composite z-score for [N-]=[N+]=Nc1ccccc1C[C@]1(C(N)=O)COC(c2ccc(OCCCO)cc2)=N1 fall at or above the 0.6 mark?
Result: No

* * *

Here, each record is paired with measured composite z-score data.
- Test Details: small-molecule microarray binders of probe aCHRDL2, primary screen, biochemical, biotinylated probe, 635/667 nm fluorescence (AID 1100)
- Setup Conditions: higher = more signal
Please respond with just the number, no unit label.

Consider the worked cases shown below.
C=C(COC)C(=O)CC[C@H](OC(C)=O)c1ccccc1OCCO; 0.151
C=CCC(OC(C)=O)[C@@H]1[C@@H](N(Cc2cccc3ccccc23)C(=O)c2ccc(C)cc2)c2cc(OCCCO)ccc2N1C(=O)Cc1ccc2ccccc2c1 (some centres undefined); 0.135

Query: So what does the record say about composite z-score for COc1cc2c(cc1O)C(C)N(Cc1sc3ccccc3c1Cl)CC2 (centres undefined) ?
Result: 0.868

Query: Entry CN1C(=O)C2CC=C(C3=CCO[C@@H]3[C@H]3CCCN3S(=O)(=O)c3ccccc3[N+](=O)[O-])CC2C1=O (some centres undefined) has what composite z-score?
Result: -0.193

Query: Field request: composite z-score | item: Cc1ccc(S[C@]2(C(=O)NC(C)C)CC(=O)N(Cc3ccccc3)[C@@H]2c2ccc(CO)cc2I)cc1
Result: 1.27

Query: Recorded composite z-score for CCOC(=O)C1=CC[C@@H](c2ccccc2)N(S(=O)(=O)c2ccc(C)cc2)[C@@H]1C#N , please?
Result: 0.868

Query: Given the molecule CCOC(=O)C1=C[C@@H](C(C)(C)C)N(S(=O)(=O)c2ccc(C)cc2)[C@H]1c1ccc(OC)cc1 , what is its reported composite z-score?
Result: -0.0462

Query: # get_value(readout='composite z-score', item= COc1ccc(-c2cc3c(c(CCc4ccccc4)n2)[Si](C(C)C)(C(C)C)O[C@H]3c2ccccc2)cn1 )
Result: -0.12

Query: Given COC(=O)C1(CC(C)C)C=C2C(=C(C)C(=O)C2C)CN1 (centres undefined) , state its recorded composite z-score.
Result: 1.14
